# assay-system: FLT3 R834Q (Homo sapiens, UniProt P36888, R834Q)
# method-notes: DiscoverX KINOMEscan competition binding, FLT3 R834Q
The following compounds are listed with their measured pKd values.
Expect pKd as a plain number equal to -log10 of the molar concentration.

# annotated cases, reported pKd shown
INSERT INTO measurements (compound, measurement_name, quantitative_result) VALUES
  ('F[C@H]1CNC[C@@H]1Nc1cccc(-c2cnc3cnc(C4CC4)cn23)n1 [Compound 50]', 'pKd', 9.70),
  ('FC(F)c1cn2c(-c3cccc(N[C@H]4CNC[C@@H]4F)n3)cnc2cn1 [Compound 16]', 'pKd', 8.89),
  ('CC1(c2cn3c(-c4cccc(N[C@H]5CNCC56CC6)n4)cnc3cn2)CC1 [Compound 5]', 'pKd', 9.89),
  ('FC(F)(F)C1(c2cn3c(-c4cccc(N[C@@H]5CCNC5)n4)cnc3cn2)CC1 [Compound 10]', 'pKd', 9.09),
  ('CC1(c2cn3c(-c4cccc(N[C@H]5CNC[C@@H]5F)n4)cnc3cn2)CC1 [Compound 1]', 'pKd', 9.77);

Entry CC(C)(O)c1cn2c(-c3cccc(N[C@H]4CNCC[C@@H]4F)n3)cnc2cn1 [Compound 31] : reported pKd = ?
8.66

Entry FC(F)c1cn2c(-c3cccc(N[C@H]4CNCC[C@@H]4F)n3)cnc2cn1 [Compound 25] : reported pKd = ?
9.33

Entry CC1(c2cn3c(-c4cccc(N[C@@H]5CCNC5)n4)cnc3cn2)CC1 [Compound 3] : reported pKd = ?
9.85

Entry FC(F)(F)COc1cn2c(-c3cccc(N[C@@H]4CCNC4)n3)cnc2cn1 [Compound 38] : reported pKd = ?
8.92

Entry Cn1cc(-c2cn3c(-c4cccc(N[C@H]5CNC[C@@H]5F)n4)cnc3cn2)cn1 [Compound 52] : reported pKd = ?
9.72

Entry CC(C)(O)c1cn2c(-c3cccc(N[C@@H]4CCCNC4)n3)cnc2cn1 [Compound 30] : reported pKd = ?
8.37
